# ASSAY METHOD TEXT: Plasma and brain concentration in samples of in vivo IP1 assay
# Design: species or system mouse
# EXPERIMENTAL CONTEXT: mouse, plasma, oral, 3 mg/kg, 3 mg/kg p.o., wild-type mice, 3 h, mean±SD; read-out: Plasma concentration
QUANTITY MEASURED: concentration at 3 h
Provide a numeric answer, followed by its unit.

In plain terms, `Cc1c(Cc2ccc(-n3cccn3)cc2)cc2c(c1F)CN([C@H]1COCC[C@@H]1O)C2=O` has a documented concentration at 3 h of 3110 ng/mL

====

# ASSAYED SYSTEM: human M1R (Homo sapiens, UniProt P11229)
# Sequence (P11229 1-460): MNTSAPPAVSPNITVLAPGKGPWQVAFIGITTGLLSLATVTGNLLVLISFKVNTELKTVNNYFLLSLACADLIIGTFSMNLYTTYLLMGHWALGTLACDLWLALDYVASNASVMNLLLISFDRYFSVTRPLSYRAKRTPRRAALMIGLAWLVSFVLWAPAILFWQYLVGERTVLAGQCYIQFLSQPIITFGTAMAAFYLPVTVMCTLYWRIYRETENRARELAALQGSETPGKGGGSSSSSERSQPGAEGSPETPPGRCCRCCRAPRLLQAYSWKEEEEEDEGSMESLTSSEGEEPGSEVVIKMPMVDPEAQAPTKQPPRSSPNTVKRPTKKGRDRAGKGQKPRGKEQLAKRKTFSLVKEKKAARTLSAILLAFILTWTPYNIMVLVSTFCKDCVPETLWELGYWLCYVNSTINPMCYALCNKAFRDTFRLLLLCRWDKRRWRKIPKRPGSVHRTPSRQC
# ASSAY METHOD TEXT: Binding modulation assay, displacement of [3H]-pirenzepine by ACh, FreeStyle 293 cell membranes
# Design: expressed in transfected cells; host or cells: FreeStyle 293 cells (transient), cell membranes
# EXPERIMENTAL CONTEXT: binding cooperativity between ACh and PAM
# Description: Binding assay was performed in 96-well plate format. Cell membranes from FreeStyle 293 cells transiently expressed human M1R were incubated with test compounds, ACh and 4 nM [^3H]-pirenzepine in an assay buffer (20 mM HEPES, 100 mM NaCl, 10 mM MgCl2, 0.1% fatty acid free BSA). […] 25 μL of microscint 0 (PerkinElmer) was added and the radioactivity was measured by Topcount (PerkinElmer). […] All data were analyzed using GraphPad Prism 5 software (GraphPad Software Inc., California, USA). […]
Decision: log α Mean >= 3 yields Y, all other cases yield N.

Query: Could you verify whether the entry `Cn1cc(-c2ccc(CN3Cc4cccc(Oc5c(F)cccc5C#N)c4C3=O)cc2)cn1` shows log α Mean of no less than 3?
Result: N

Query: Could you verify whether the entry `Cn1cc(-c2ccc(CN3Cc4cccc(-c5ccn[nH]5)c4C3=O)cc2)cn1` shows log α Mean of no less than 3?
Result: N

Query: Could you verify whether the entry Cn1cc(-c2ccc(Cc3cc4c(=O)n([C@H]5CCCC[C@@H]5O)cnc4c4ccccc34)cn2)cn1 [Compound C, reference compound] shows log α Mean of no less than 3?
Result: Y

Query: Could you verify whether the entry `Cn1cc(-c2ccc(CN3Cc4cccc(OCCN5CCCCC5)c4C3=O)cc2)cn1` shows log α Mean of no less than 3?
Result: N

Query: Could you verify whether the entry `Cn1ccc(-c2ccc(CN3Cc4cccc(O[C@H]5CCCC[C@@H]5O)c4C3=O)cc2)n1` shows log α Mean of no less than 3?
Result: Y

Query: Could you verify whether the entry O=c1c2cn(Cc3ccc(-n4cccn4)cc3)c3ccccc3c-2nn1-c1ccccc1F [Compound E, reference compound] shows log α Mean of no less than 3?
Result: N
